Can you tell me Beta/Delta Ratio for the items I'm about to list?
- system-name: PI3Kβ (Homo sapiens, UniProt P42338)
- Construct: His tag (pFastbac HTa vector) (N); FLAG (N); made in house; host or cells: Sf21 insect cells (baculovirus)
- Sequence (P42338 whole entry): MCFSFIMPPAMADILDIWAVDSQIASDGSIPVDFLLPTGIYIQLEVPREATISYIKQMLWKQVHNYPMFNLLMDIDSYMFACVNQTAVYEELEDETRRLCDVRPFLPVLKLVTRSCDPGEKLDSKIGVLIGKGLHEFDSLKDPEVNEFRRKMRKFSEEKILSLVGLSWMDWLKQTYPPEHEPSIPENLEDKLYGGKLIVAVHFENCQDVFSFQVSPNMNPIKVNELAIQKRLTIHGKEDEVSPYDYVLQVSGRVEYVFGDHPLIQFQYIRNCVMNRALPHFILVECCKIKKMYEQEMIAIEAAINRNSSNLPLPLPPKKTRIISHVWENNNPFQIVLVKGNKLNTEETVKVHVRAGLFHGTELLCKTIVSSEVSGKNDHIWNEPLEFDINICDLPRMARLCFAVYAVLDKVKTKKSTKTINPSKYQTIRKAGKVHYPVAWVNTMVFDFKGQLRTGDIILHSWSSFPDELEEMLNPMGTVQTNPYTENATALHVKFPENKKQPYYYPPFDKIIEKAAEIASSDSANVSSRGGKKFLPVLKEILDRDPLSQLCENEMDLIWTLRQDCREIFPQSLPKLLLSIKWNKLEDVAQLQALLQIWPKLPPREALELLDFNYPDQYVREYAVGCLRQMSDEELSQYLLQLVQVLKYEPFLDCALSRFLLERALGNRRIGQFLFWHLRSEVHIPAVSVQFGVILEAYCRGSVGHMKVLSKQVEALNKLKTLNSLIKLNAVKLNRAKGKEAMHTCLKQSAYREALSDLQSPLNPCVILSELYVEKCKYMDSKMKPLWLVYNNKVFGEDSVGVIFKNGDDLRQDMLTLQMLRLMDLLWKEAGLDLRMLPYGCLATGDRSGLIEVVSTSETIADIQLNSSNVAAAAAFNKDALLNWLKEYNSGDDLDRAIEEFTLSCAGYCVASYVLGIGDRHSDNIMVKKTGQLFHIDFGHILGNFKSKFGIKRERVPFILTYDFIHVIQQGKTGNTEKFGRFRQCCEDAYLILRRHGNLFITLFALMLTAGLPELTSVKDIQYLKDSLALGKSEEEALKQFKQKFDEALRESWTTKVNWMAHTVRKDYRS
- Sequence (P27986 whole entry partner): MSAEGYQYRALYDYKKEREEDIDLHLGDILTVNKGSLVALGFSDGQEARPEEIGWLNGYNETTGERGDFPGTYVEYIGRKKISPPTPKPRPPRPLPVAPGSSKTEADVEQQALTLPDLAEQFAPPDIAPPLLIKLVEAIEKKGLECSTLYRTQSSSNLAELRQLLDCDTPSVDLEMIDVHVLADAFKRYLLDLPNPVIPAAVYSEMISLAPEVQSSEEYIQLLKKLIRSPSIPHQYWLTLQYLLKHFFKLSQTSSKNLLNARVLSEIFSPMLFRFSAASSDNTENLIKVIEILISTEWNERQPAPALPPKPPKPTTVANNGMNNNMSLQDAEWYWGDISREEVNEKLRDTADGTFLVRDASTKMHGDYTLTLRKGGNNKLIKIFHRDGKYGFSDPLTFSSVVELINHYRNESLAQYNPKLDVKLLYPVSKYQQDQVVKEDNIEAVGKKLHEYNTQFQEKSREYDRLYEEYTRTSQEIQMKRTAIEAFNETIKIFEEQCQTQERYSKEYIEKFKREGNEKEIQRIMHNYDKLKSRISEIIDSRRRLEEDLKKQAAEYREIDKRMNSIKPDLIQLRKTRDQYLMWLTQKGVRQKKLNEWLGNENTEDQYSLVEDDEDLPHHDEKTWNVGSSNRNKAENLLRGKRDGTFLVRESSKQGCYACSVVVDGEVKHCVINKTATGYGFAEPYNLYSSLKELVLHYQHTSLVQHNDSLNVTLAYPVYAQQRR
- assay-method-text: Biochemical assay of PI3K potency and selectivity using 20 μM ATP, Beta
- condition-notes: 20 μM ATP; ratio of IC50 values; > = hypothetical ratio with 100 μM substituted for the missing IC50
Answer using only a numeral; do not append any unit.

Enquiry: I have this compound here, `Cc1cccc2nc(CSc3ncnc4[nH]cnc34)n(-c3ccccc3F)c(=O)c12` , and I need its recorded Beta/Delta Ratio.
Return: 83

Enquiry: I have this compound here, `Cc1cccc2nc(Cn3cnc4c(N)ncnc43)n(-c3ccccc3C(C)C)c(=O)c12` , and I need its recorded Beta/Delta Ratio.
Return: 54

Enquiry: I have this compound here, `Nc1ncnc2c1ncn2Cc1nc2cccc(F)c2c(=O)n1-c1ccccc1Cl` , and I need its recorded Beta/Delta Ratio.
Return: 56

Enquiry: I have this compound here, `O=c1c2ccccc2nc(CSc2ncnc3[nH]cnc23)n1-c1ccncc1` , and I need its recorded Beta/Delta Ratio.
Return: 8

Enquiry: I have this compound here, `CC(=O)O.CN1CCN(n2c(CSc3ncnc4[nH]cnc34)nc3ccccc3c2=O)CC1` , and I need its recorded Beta/Delta Ratio.
Return: 15
